Cited source: the supplement of paper PMC13380429

system: Vero E6; test: cell viability relative to DMSO; higher = less toxic; settings: 72 h; 10000 nM
readout: cell viability (%)
# value in %; strip the unit string

# example entries with known answers
[
  {
    "molecule": "COC(=O)C[C@H]1CC(c2ccc(O)cc2)=NO1",
    "cell viability [%]": 98.5
  },
  {
    "molecule": "CCc1cc2cc(OC)c(OC)cc2c(Cc2ccccc2)n1",
    "cell viability [%]": 107
  },
  {
    "molecule": "CN1C(=O)CC(C)(c2ccccc2)C1=O (stereo not given) [methsuximide]",
    "cell viability [%]": 95.2
  },
  {
    "molecule": "Cc1c(NC(=O)c2cc3c(s2)CCCC3)cccc1-c1cn(C)c(=O)c(Nc2ccc(C3C(=O)N(C)CCN3C)cc2)n1 (stereo in doubt)",
    "cell viability [%]": 105
  },
  {
    "molecule": "Cc1cnc(C(=O)O)c[n+]1[O-]",
    "cell viability [%]": 101
  }
]

// query Recorded cell viability of Cc1cc(SCc2sc(-c3ccc(C(F)(F)F)cc3)nc2C)ccc1OCC(=O)O , please.
// result 97.3

// query And for CC(C)(O)CC(=O)O [beta-hydroxy-beta-methylbutyrate] ?
// result 100

// query And for c1cc(CN2CCCCC2)cc(OCCCNc2nc3ccccc3s2)c1 [zolantidine] ?
// result 94.4

// query And for CN1C/C=C/CCOc2cccc(c2)-c2ccnc(n2)Nc2cccc(c2)C1 ?
// result 5.6

// query And for C[C@H](c1ccc2ccc(OC3CCC(C(F)(F)F)CC3)c(C(F)(F)F)c2c1)N1C2CCC1CC(C(=O)O)C2 (stereo not given in full) ?
// result 89
